Examples of molecules with documented pEC50 follow.
study-system: UniProt P16066
Sequence (P16066 33-1061): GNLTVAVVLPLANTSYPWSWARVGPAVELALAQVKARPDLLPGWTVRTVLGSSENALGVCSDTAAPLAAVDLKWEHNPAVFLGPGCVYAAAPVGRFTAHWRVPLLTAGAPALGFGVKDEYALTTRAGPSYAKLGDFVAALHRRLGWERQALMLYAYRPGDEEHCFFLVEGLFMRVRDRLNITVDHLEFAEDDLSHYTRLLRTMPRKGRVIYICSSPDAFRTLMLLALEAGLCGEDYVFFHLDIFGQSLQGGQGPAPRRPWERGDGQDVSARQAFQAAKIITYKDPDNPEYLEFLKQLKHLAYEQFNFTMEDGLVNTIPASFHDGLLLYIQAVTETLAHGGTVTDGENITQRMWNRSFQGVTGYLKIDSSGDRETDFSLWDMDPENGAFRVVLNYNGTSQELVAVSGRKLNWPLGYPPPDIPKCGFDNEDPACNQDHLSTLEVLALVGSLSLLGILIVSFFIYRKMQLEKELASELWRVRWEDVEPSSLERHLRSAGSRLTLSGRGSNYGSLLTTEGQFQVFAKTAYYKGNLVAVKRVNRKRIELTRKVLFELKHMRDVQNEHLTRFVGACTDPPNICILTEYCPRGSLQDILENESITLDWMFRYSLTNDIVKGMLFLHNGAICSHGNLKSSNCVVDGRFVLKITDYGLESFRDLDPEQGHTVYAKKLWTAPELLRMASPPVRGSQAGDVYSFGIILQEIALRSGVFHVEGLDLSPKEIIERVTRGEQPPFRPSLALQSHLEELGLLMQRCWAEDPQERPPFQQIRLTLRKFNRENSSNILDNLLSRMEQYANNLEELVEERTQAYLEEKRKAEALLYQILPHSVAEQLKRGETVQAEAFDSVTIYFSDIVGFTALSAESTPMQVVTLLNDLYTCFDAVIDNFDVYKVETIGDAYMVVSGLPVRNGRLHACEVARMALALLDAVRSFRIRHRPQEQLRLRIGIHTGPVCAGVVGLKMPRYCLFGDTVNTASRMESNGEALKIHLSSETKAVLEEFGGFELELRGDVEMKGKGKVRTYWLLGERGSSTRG
procedure-details: NPRA Functional Cell Assay (cGMP HTRF, NPRA HEK JumpIn stable cells)
conditions-used: cGMP production, 1 hour at 37° C., 10-point dose response
pEC50: −log10 of the molar value. Structures can show the parent of a compound that is named as a salt.
measured-metric: pEC50

>  <molecule>
CC(C)(C)[C@H]1CCc2nc3sc(C(=O)N[C@H](CCN4CC[C@H](C(=O)O)[C@@H](F)C4)c4ccc(-c5cnc(O)c(F)c5)cc4)nc3cc2C1 (racemic) [Example 203, formate]

>  <value-observed>
5.93

$$$$
>  <molecule>
CC(C)(C)[C@H]1CCc2nc3sc(C(=O)N[C@H](CCN4CCC(O)CC4)c4ccc(-c5cc[n+]([O-])nc5)cc4)nc3cc2C1 (racemic) [Example 163, trifluoroacetate]

>  <value-observed>
6.45

$$$$
>  <molecule>
CN1CC(NC(=O)c2cccc([C@@H](CCN3CCC(CCO)CC3)NC(=O)c3nc4cc5c(nc4s3)CC[C@H](C(C)(C)C)C5)c2)C1 (racemic)

>  <value-observed>
6.80

$$$$
>  <molecule>
CN(C)CC1(O)CCN(CC[C@@H](NC(=O)c2nc3cc4c(nc3s2)CC[C@H](C(C)(C)C)C4)c2ccc(-c3cnc(O)c(F)c3)cc2)CC1 (racemic) [Example 200, formate]

>  <value-observed>
6.61

$$$$
>  <molecule>
CC(C)(C)[C@H]1CCc2nc3sc(C(=O)NC(CCN4CCCC4)c4ccncc4)nc3cc2C1 (some centres unmarked)

>  <value-observed>
6.03

$$$$
>  <molecule>
Cn1cnnc1-c1ccc([C@@H](CCN2CCC(O)CC2)NC(=O)c2nc3cc4c(nc3s2)CC[C@H](C(C)(C)C)C4)cc1 (racemic)

>  <value-observed>
6.06

$$$$
>  <molecule>
CN(CC[C@@H](NC(=O)c1nc2cc3c(nc2s1)CC[C@H](C(C)(C)C)C3)c1ccc(NS(=O)(=O)N(C)C)nc1)CC1(O)CC1 (racemic) [Example 209, 2,2,2-trifluoroacetate]

>  <value-observed>
6.13

$$$$
>  <molecule>
CC(C)(C)[C@H]1CCc2nc3sc(C(=O)N[C@H](CCN[C@@H]4C[C@@H](O)[C@@H](O)C4)c4ccc(-c5ccc(=O)[nH]c5)cc4)cc3cc2C1 (racemic)

>  <value-observed>
6.24

$$$$
>  <molecule>
CC(C)(C)[C@H]1CCc2nc3sc(C(=O)N[C@H](CCN4CCC(C(=O)O)CC4)c4ccc(-c5cnc(O)c(F)c5)cc4)nc3cc2C1 [Example 224]

>  <value-observed>
6.70

$$$$
>  <molecule>
CN1CC(NC(=O)c2cccc([C@@H](CCN3CC4C(C3)C4C(=O)O)NC(=O)c3nc4cc5c(nc4s3)CC[C@H](C(C)(C)C)C5)c2)C1 (mixture of isomers)

>  <value-observed>
6.21

$$$$
>  <molecule>
CC(C)(C)[C@H]1CCc2nc3sc(C(=O)N[C@H](CCN4CCC(C#N)CC4)c4ccc(-c5ccc(=O)[nH]c5)cc4)cc3cc2C1 (racemic)

>  <value-observed>
5.74

$$$$
